- Test system: Plutella xylostella
- test-method-notes: Larvicidal activity against second-instar larvae of Plutella xylostella (diamondback moth) infected in compound-treated cabbage leaves assessed as mortality at 200 mg/l measured after 4 days
- Assay type: functional
- condition-notes: 96 h
Recorded mortality at 200 µg/mL by entry
readout-type: mortality at 200 µg/mL (%)

> print(dat)
                               line.notation  numeric.value
 1  O=C(NC(=O)c1c(F)cccc1F)Nc1ccc(C(=O)N2CCOCC2)cc1              0
 2  CC(C)(C)c1ccc(CNC(=O)c2ccc(NC(=O)NC(=O)c3c(F)cccc3F)cc2)cc1              0
 3  CC(C)(C)NC(=O)c1ccc(NC(=O)NC(=O)c2c(F)cccc2F)cc1              0
 4  CN(C(=O)c1ccc(NC(=O)NC(=O)c2c(F)cccc2F)cc1)c1ccc(Cl)cc1              0
 5  CCCCCOS(=O)(=O)c1ccc(NC(=O)NC(=O)c2c(F)cccc2F)cc1             30
 6  O=C(NC(=O)c1c(F)cccc1F)Nc1ccc(S(=O)(=O)OCCF)cc1             20
 7  CCCCNC(=O)c1ccc(NC(=O)NC(=O)c2c(F)cccc2F)cc1              0
 8  O=C(NC(=O)c1c(F)cccc1F)Nc1ccc(S(=O)(=O)OCCCl)cc1             30
 9  O=C(NC(=O)c1c(F)cccc1F)Nc1ccc(S(=O)(=O)OCCCCCl)cc1             20
10  O=C(NC(=O)c1c(F)cccc1F)Nc1ccc(S(=O)(=O)OCC(F)(F)F)cc1            100

---

- System: Mythimna separata
- test-method-notes: Larvicidal activity against fourth instar larvae of Mythimna separata (Oriental armyworm) infected compound-treated corn leaves assessed as mortality at 100 mg/l measured after 4 days
- Format: functional
- condition-notes: 96 h
readout-type: mortality at 100 µg/mL (%)

> print(dat)
                              line.notation          tested.on  unit.info  numeric.value
1  O=C(NC(=O)c1c(F)cccc1F)Nc1ccc(S(=O)(=O)OCCCCCl)cc1  Mythimna separata          %            100
2  O=C(NC(=O)c1c(F)cccc1F)Nc1ccc(S(=O)(=O)OCC(F)(F)F)cc1  Mythimna separata          %            100
3  O=C(NC(=O)c1c(F)cccc1F)Nc1ccc(S(=O)(=O)OCCCl)cc1  Mythimna separata          %            100
4  CCCCCOS(=O)(=O)c1ccc(NC(=O)NC(=O)c2c(F)cccc2F)cc1  Mythimna separata          %            100
5  CC(C)(C)NC(=O)c1ccc(NC(=O)NC(=O)c2c(F)cccc2F)cc1  Mythimna separata          %            100
6  O=C(NC(=O)c1c(F)cccc1F)Nc1ccc(S(=O)(=O)OCCF)cc1  Mythimna separata          %            100

---

- Tested on: Plutella xylostella
- test-method-notes: Larvicidal activity against second-instar larvae of Plutella xylostella (diamondback moth) infected in compound-treated cabbage leaves assessed as mortality at 200 mg/l measured after 4 days
- Format: functional
- condition-notes: 96 h
readout-type: mortality at 200 µg/mL (%)

> print(dat)
                                   molecule            readout.type  numeric.value
1  O=C(NC(=O)c1c(F)cccc1F)Nc1ccc(C(=O)Nc2ccc(Cl)cc2)cc1  mortality at 200 µg/mL              0
2  O=C(NC(=O)c1c(F)cccc1F)Nc1ccc(S(=O)(=O)OC(C(F)(F)F)C(F)(F)F)cc1  mortality at 200 µg/mL             60
3  O=C(NC(=O)c1c(F)cccc1F)Nc1ccc(S(=O)(=O)Oc2ccc(Cl)cc2)cc1  mortality at 200 µg/mL              0
4  CC1CCC(C(C)C)C(OS(=O)(=O)c2ccc(NC(=O)NC(=O)c3c(F)cccc3F)cc2)C1 (centres undefined)  mortality at 200 µg/mL              0

Origin of measurements: ChEMBL document CHEMBL3046550
